Tested on: Yap1 mRNA
Experiment: Antisense inhibition of human Yap1 in SNU-449 cells by modified oligonucleotides, single dose (Example 5, RTS36584)
Assay type: cell-based
Conditions: Table 42 (separate experiment); SNU-449 cells, 10,000 cells per well, free uptake, 2,000 nM modified oligonucleotide, approximately 48 hours; RTS36584; normalized to RIBOGREEN; Yap1 mRNA relative to untreated control cells
Strand notation (5' to 3'): a small letter for the sugar, then the base; units joined by * are phosphorothioate-linked, units joined directly phosphodiester-linked; [ ] holds rarer units or linkages, { } end groups; capitals alone tell only the bases. e = 2'-O-(2-methoxyethyl) (MOE); k = constrained ethyl (cEt); [5mC] = 5-methylcytosine; d = 2'-deoxy (DNA)
endpointLabel: YAP1 (% UTC)

[
  {
    "substance": "1198710 (kA*k[5mC]*dT*dA*dA*dG*dT*dA*dA*dG*dG*dT*kT*eT*k[5mC]*e[5mC]; antisense) [Compound 1198710]",
    "endpointLabel": "YAP1 (% UTC)",
    "recordedValue": 51
  },
  {
    "substance": "1095463 (antisense kA*k[5mC]*dT*dG*dA*dG*dG*dT*dA*dT*dA*dA*k[5mC]*eT*kG*eG) [Compound 1095463]",
    "endpointLabel": "YAP1 (% UTC)",
    "recordedValue": 37
  },
  {
    "substance": "1198200 (kA*kA*dT*dT*dG*dT*d[5mC]*dT*d[5mC]*dA*dT*eG*e[5mC]*e[5mC]*kT*kT; antisense) [Compound 1198200]",
    "endpointLabel": "YAP1 (% UTC)",
    "recordedValue": 49
  },
  {
    "substance": "1198206 (kA*kT*dA*dT*dG*dG*dA*dA*dA*dT*dT*eG*eT*e[5mC]*kT*k[5mC]; antisense) [Compound 1198206]",
    "endpointLabel": "YAP1 (% UTC)",
    "recordedValue": 43
  },
  {
    "substance": "1198703 (k[5mC]*kT*dT*dT*dA*dA*dA*dG*dT*dG*dT*dA*kT*eG*kT*e[5mC]; antisense) [Compound 1198703]",
    "endpointLabel": "YAP1 (% UTC)",
    "recordedValue": 42
  },
  {
    "substance": "1198212 (kT*kA*dT*dT*dA*dG*dA*dG*dT*dA*dT*eG*eT*eG*kG*k[5mC]; antisense) [Compound 1198212]",
    "endpointLabel": "YAP1 (% UTC)",
    "recordedValue": 17
  }
]

Value source: patent US11214803B2
